Test Protocol: In vivo bioavailability in the mouse (cassette dosing)
Reported Conditions: mouse, plasma, female SJL/N Tac mice, nominal dose 1 mg/kg
Experimental: In Vivo Bioavailability in the Mouse Female mice (SJL/N Tac) were given a single intravenous or oral dose of a mixture of 5 or 6 compounds per cassette (nominal dose: 1 mg/kg/compound) in a solution containing 0.5% N,N′-dimethylacetamide (DMA) and 15% sulfobutyl ether β-cyclodextrin (Captisol®). […] The dose formulations and plasma concentrations of each compound were determined by LC-MS/MS. […] The AUCinf was calculated with the residual area estimated as Cz/λ. […]
Readout Type: clearance (mL/min/kg)

A. C[C@@H]1CN(C(=O)c2cc3cc(Cl)ccc3o2)[C@@H](C)CN1Cc1ccc(F)cc1 (racemic) [Compound 4.1]
B. C[C@@H]1CN(C(=O)c2cc3cc(Br)ccc3o2)[C@@H](C)CN1Cc1ccc(F)cc1 (racemic) [Compound 3.1]
Ask: Of A and B , which shows the smaller clearance value? // caller expects the label of the chosen entry
Reply: B
